Test: reduction of Shn3 3'UTR-driven luciferase in osteoblasts – cell-based, Clone20 osteoblasts, firefly luciferase, cherry-picked, dose response (AID 624132);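 note: firefly luciferase luminescence from reporter carrying the Shn3 3'UTR in osteoblasts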
Assay type: functional
The source made the active and inactive calls. Cut-off read from the data, not from the text of the source: actives have a measured AC50 and inactives only a lower limit.
Consider the following molecules; for each one, report its AC50.

The molecule `Cc1nn(Cc2ccc(Cl)cc2)c(C)c1NC(=O)c1cc(C(C)C)on1` showed AC50 equal to 6.2 µM (active)

Field AC50 (entry `CCOC(=O)C1(Cc2cccc(OC)c2)CCN(C/C=C/c2ccc(OC)cc2)CC1` ) reads 4.75 µM (active)

Lookup result for `Cc1cccc(CS(=O)(=O)c2ncc(Cl)c(C(=O)NCc3ccc4c(c3)OCO4)n2)c1` ; measured AC50: 0.938 µM (active)

The molecule identified as `COC(=O)C1=C(c2ccc(F)cc2OCc2ccccc2)C[C@@H]2CC[C@H]1N2C(=O)NCc1ccc(C(F)(F)F)cc1` registered its AC50 at 9.14 µM (active)

Entry `COc1ccccc1N1CCN(c2ncc(C(=O)N3CCN(c4cccc(Cl)c4)CC3)c3ccccc23)CC1` — recorded AC50 = 0.572 µM (active)
